Source listed as PubChem BioAssay (NCI).

- Test system: NCI-H226 lung
- Assay Summary: NCI-60 one-dose screen, 48 h
- Details: 10 µM unless noted
Compounds without any hit were thinned out: in the full panel of roughly 83,000, 20% have a hit. Activity calls are given as the source filed them. How the source made its calls: active means growth percent below 10; inactive means the rest.
Your response should consist of one outcome taken from t for active, f for inactive

Some entries whose results are on file:
• CNC(=O)c1cccc(Cn2nc(C)c(NC(=O)c3ccc(COc4ccc(C(F)(F)F)cc4C)cc3)c2C)n1 = f
• COc1cc(/C=N/NC(=O)c2cnn3c2NC(c2ccccc2)C3)ccc1Oc1ccccc1 (configuration not stated) = f
• COc1ccc(/C=C/c2nc(Nc3cccc(NC(C)=O)c3)c3ccccc3n2)cc1 = f
• COc1ccc2nc(-c3ccc(-c4noc(-c5cc(OC)c(OC)c(OC)c5)n4)cc3)[nH]c2c1 = f
• C[C@H](c1nc2ccc(N)cc2[nH]1)[C@H]1CC[C@H]2[C@@H]3CCC4=CC(=O)CC[C@]4(C)[C@H]3CC[C@]12C = f

Give the logged outcome of this assay for the following compound: COc1cc(C(=O)Nc2cc3c(cc2Oc2cc(C)cc(C)c2)C(=O)N(C)[C@@H](CC(=O)N(C)O)C(=O)N3)c(Br)c(OC)c1OC t

Give the logged outcome of this assay for the following compound: O=S(=O)(NCCNc1nccc(-c2c(-c3cccc(O)c3)nc3occn23)n1)c1cccc(F)c1 f

Give the logged outcome of this assay for the following compound: CCCCOc1ccc(/C(C)=N/Nc2cc(C)nc3ccc(Br)cc23)cc1 f

Give the logged outcome of this assay for the following compound: Cc1cccc(C)c1N=c1oc2ccc(Cl)cc2nc1-c1ccccc1O f

Give the logged outcome of this assay for the following compound: COc1ccc(CC(C)=C(c2ccc(OCCN3CCCCCC3)cc2)c2ccc(OCCN3CCCCCC3)cc2)cc1 t

Give the logged outcome of this assay for the following compound: CCOc1ccc(Nc2nc(-c3ccc4c(c3)NC(=O)CO4)cs2)cc1 f

Give the logged outcome of this assay for the following compound: CSc1nc2sc3cccc(Cl)c3n2c(=N)c1C#N f

----------
- Tested on: HT29 colon
- Assay Summary: NCI-60 one-dose screen, 48 h (100 = growth as untreated, 0 = no growth, -100 = all killed)
- Details: 10 µM unless noted
About 83,000 compounds went through this panel and 20% of them were active in at least one assay; those are over-represented in the sample as a whole.
Rule: growth of 90% or more gives satisfied; anything lower gives not satisfied.

Some entries whose results are on file:
• CCOc1cccc(-c2nc(N)nc(Nc3ccccc3SSc3ccccc3Nc3nc(N)nc(-c4cccc(OCC)c4)n3)n2)c1 = satisfied
• O=C1Nc2cc(Cl)ccc2/C1=C\c1c(-c2ccc(F)cc2)nc2ccccn12 = not satisfied
• O=C(/C=C(/C=C/c1csc2ccccc12)OB(F)F)/C=C/c1csc2ccccc12 = not satisfied
• O=C1Nc2cc(-c3ccc(NC(=O)c4ccccc4)cc3)ccc2/C1=C/c1ccc[nH]1 = satisfied
• N#CC1=C(N)Oc2c(cnn2-c2ccc([N+](=O)[O-])cc2[N+](=O)[O-])C1c1ccccc1 (stereo unspecified) = satisfied

Answer whether growth of NS(=O)(=O)c1ccc(Cn2c(SCC(=O)N/N=C/c3ccccc3O)nc3ccccc3c2=O)cc1 is greater than or equal to 90%. not satisfied

Answer whether growth of Cc1ccc(-c2csc(NC(=O)CSc3nc(-c4ccccc4)cc(=O)[nH]3)n2)cc1 is greater than or equal to 90%. satisfied

Answer whether growth of COc1cc(/C=C\c2cc(/C=C\c3ccc(O)c(OC)c3)n(C(=O)COc3ccccc3)n2)ccc1O is greater than or equal to 90%. not satisfied

Answer whether growth of CC1(C)CC[C@]2(C(=O)O)CC[C@]3(C)C(=CC[C@@H]4[C@@]5(C)Cc6c([nH]c7ccccc67)C(C)(C)[C@@H]5CC[C@]43C)[C@@H]2C1 is greater than or equal to 90%. not satisfied

Answer whether growth of Cn1ccnc1C(=O)/C=C/c1ccc(CC(=O)Nc2ccc(F)cc2)cc1 is greater than or equal to 90%. not satisfied

Answer whether growth of C=C1C(=O)O[C@H]2[C@H]1CC/C(C(=O)NCCCCCNC(=O)/C1=C/CC[C@@]3(C)O[C@H]3[C@H]3OC(=O)C(=C)[C@@H]3CC1)=C\CC[C@@]1(C)O[C@@H]21 is greater than or equal to 90%. satisfied

Answer whether growth of Cc1nn(-c2ccccc2)c(Cl)c1/C=N\N=c1/sc2ccccc2n1C is greater than or equal to 90%. satisfied

Answer whether growth of Fc1ccc2c(-c3cncn3CCc3ccccc3)c[nH]c2c1 is greater than or equal to 90%. not satisfied

Answer whether growth of O=C(Cc1ccc(/C=C/C(=O)c2nccs2)cc1)Nc1ccccc1 is greater than or equal to 90%. not satisfied

Answer whether growth of O=C1c2ccc3c4c(ccc(c24)C(=O)N1CCCNCc1ccccc1Cl)C(=O)N(CCCNCc1ccccc1Cl)C3=O is greater than or equal to 90%. not satisfied
